Give pIC50 for every item shown.
Where a name gives a salt, the structure may show the parent alone.
When answering, recall that pIC50 equals minus log10 of the concentration in mol/L, and write that number alone.

Per the reported DPP-IV from porcine kidney (Sus scrofa, UniProt P22411) data, CC(C)=CCn1c(SC2(CN)CCCC2)nc2c1c(=O)n(CC(=O)c1ccccc1)c(=O)n2C [Example 64, trifluoroacetate] has pIC50 of 8.15

Per the reported DPP-IV from porcine kidney (Sus scrofa, UniProt P22411) data, CC(C)=CCn1c(SC(C)(C)CN)nc2c1c(=O)[nH]c(=O)n2C [Example 5] has pIC50 of 7.08

Per the reported DPP-IV from porcine kidney (Sus scrofa, UniProt P22411) data, CC(C)=CCn1c(SC(C)(C)CN)nc2c1c(=O)n(CCc1ccccc1)c(=O)n2C1CC1 [Example 25] has pIC50 of 7.32

Per the reported DPP-IV from porcine kidney (Sus scrofa, UniProt P22411) data, CC(C)=CCn1c(SC(C)(C)CN)nc2c1c(=O)n(Cc1cc(C)on1)c(=O)n2C [Example 21, hydrochloride] has pIC50 of 6.77

Per the reported DPP-IV from porcine kidney (Sus scrofa, UniProt P22411) data, Cn1c(=O)n(CC(=O)c2ccccc2)c(=O)c2c1nc(SC1(CN)CCCC1)n2Cc1ccccc1 [Example 63, trifluoroacetate] has pIC50 of 7.85

Cited source for all entries: patent US8236810B2
